- Test system: HCT-15

compound: Oc1ccc(SCc2cc(O)c(O)c(O)c2)cc1
display-unit: µM
sign: =
GI50: 39.9
--
compound: BrCCC[P+](c1ccccc1)(c1ccccc1)c1ccccc1
display-unit: µM
sign: >
GI50: 100
--
compound: CC(C)(C)C(=O)CC(=O)C(F)(F)C(F)(F)C(F)(F)F
display-unit: µM
sign: =
GI50: 14.3
--
compound: CCP(C)(C)=O
display-unit: µM
sign: >
GI50: 100
--
compound: O=c1c2cc(I)ccc2nc(Sc2ncccc2[N+](=O)[O-])n1Cc1ccccc1
display-unit: µM
sign: =
GI50: 19.3
--
compound: O=C(CC(CC(=O)Oc1c(Br)cc(Br)cc1C(=O)O)C(=O)Oc1c(Br)cc(Br)cc1C(=O)O)Oc1c(Br)cc(Br)cc1C(=O)O
display-unit: µM
sign: =
GI50: 43.8
--
compound: COc1ccc(CC2c3cc(Oc4cc(CC5c6cc(OC)c(OC)cc6CCN5C)ccc4O)c(OC)cc3CCN2C)cc1 (stereo not given)
display-unit: µM
sign: =
GI50: 2.17
--
compound: CCCCCCc1cc2cc(-c3cn4ccccc4n3)c(=O)oc2cc1O
display-unit: µM
sign: =
GI50: 5.66
--
compound: C=CCN(c1cc(OCc2ccccc2)c2[nH]cc(C)c2c1)S(C)(=O)=O
display-unit: µM
sign: >
GI50: 100
--
compound: O=C(Cc1ccccc1)NN1C(=O)C(Cl)C1c1ccccc1Cl (stereo not given)
display-unit: µM
sign: >
GI50: 92.9
